# TEST_SYSTEM: GABA-B receptor (Homo sapiens, UniProt O75899+Q9UBS5)
# Sequence (Q9UBS5 whole entry): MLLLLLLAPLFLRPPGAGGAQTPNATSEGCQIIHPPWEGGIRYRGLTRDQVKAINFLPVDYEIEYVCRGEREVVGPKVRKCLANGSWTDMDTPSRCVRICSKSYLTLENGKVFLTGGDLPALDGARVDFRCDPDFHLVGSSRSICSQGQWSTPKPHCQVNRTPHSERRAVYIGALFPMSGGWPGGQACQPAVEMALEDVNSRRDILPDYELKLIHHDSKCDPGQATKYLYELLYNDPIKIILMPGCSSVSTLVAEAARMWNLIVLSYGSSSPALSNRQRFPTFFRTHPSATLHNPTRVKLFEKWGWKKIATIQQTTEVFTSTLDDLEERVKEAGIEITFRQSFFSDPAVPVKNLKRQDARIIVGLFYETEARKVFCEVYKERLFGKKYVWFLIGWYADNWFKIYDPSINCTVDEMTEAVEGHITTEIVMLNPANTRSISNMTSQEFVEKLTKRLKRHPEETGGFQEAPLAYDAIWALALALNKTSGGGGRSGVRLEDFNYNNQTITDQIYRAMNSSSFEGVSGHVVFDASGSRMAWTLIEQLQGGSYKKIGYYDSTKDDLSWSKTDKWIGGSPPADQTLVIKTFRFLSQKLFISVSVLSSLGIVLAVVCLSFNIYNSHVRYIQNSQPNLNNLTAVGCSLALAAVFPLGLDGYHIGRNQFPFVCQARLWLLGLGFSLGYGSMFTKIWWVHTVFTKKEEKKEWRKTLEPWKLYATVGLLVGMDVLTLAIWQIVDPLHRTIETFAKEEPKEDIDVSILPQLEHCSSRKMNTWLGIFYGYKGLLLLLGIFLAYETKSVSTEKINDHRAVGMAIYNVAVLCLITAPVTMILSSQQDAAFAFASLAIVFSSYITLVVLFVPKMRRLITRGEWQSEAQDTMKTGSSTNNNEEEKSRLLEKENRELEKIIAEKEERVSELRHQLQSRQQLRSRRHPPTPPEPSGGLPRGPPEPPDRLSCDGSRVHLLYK
# Sequence (O75899 whole entry): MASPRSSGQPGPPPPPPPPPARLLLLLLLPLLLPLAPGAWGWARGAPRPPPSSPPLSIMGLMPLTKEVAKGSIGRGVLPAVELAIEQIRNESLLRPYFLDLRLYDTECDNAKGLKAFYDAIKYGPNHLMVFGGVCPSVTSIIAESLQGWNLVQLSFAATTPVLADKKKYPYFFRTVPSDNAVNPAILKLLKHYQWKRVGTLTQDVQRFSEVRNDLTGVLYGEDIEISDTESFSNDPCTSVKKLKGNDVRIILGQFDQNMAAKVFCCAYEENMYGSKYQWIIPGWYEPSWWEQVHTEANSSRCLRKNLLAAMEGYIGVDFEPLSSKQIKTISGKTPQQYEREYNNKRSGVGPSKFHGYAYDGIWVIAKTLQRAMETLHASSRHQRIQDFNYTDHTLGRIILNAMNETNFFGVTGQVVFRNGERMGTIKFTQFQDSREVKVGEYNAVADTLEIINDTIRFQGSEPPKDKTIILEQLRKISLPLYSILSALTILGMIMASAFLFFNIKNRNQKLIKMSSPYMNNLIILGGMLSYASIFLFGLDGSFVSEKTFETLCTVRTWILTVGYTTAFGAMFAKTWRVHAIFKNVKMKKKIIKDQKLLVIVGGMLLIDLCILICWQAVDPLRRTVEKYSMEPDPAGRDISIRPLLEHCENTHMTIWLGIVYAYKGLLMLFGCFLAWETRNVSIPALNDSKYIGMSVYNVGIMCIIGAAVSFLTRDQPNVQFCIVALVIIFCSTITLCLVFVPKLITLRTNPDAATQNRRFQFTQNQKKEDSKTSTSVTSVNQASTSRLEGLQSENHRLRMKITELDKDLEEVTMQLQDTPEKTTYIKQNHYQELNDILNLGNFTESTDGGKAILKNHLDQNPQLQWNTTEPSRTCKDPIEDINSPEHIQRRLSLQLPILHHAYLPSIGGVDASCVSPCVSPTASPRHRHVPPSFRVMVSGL
# MEASUREMENT_DESCRIPTION: Agonist activity at human GABA-B1/B2 receptor expressed in HEK293/Cre-luc cells assessed as inhibition of forskolin-stimulated cAMP accumulation after 3 hrs by luciferase reporter gene assay
pEC50: −log10 of the molar value.
We begin with a simple list: items and their reported pEC50.

[in] So what's the measured pEC50 for this one? CC(=O)c1ccc(C(O)C(F)(F)C(=O)c2ccccn2)cc1 (stereo not drawn)
[out] < 4.00

[in] pEC50 lookup needed for O=C(c1ccc(Cl)cc1)C(F)(F)C(NCc1ccccc1)c1ccccc1 (stereo not drawn) , thanks.
[out] 4.24

[in] Endpoint output: pEC50 of CCc1ccc(C(O)C(F)(F)C(=O)C23CC4CC(CC(C4)C2)C3)cc1 (stereo not drawn) . Value?
[out] < 4.00

[in] I have this compound here, O=C(C12CC3CC(CC(C3)C1)C2)C(F)(F)C(O)c1ccccc1 (stereo not drawn) , and I need its recorded pEC50.
[out] < 4.00

[in] Could you share which pEC50 value was measured for O=C(c1ccc2ccccc2c1)C(F)(F)C(NCc1ccccc1)c1ccccc1 (stereo not drawn) ?
[out] 4.04

[in] pEC50 for CC(C)(C)OC(=O)NC(c1ccccc1)C(F)(F)C(=O)c1ccc2ccccc2c1 (stereo not drawn) ?
[out] 4.71

[in] // lookup pEC50 for CC(C)(C)OC(=O)NC(c1ccccc1)C(F)(F)C(=O)c1ccc2c(c1)OCO2 (stereo not drawn)
[out] < 4.00

[in] Recorded pEC50 of O=C(C12CC3CC(CC(C3)C1)C2)C(F)(F)C(O)c1ccc(Cl)cc1 (stereo not drawn) , please.
[out] < 4.00

[in] Which measured pEC50 value corresponds to O=C(C12CC3CC(CC(C3)C1)C2)C(F)(F)C(NS(=O)(=O)c1ccccc1)c1ccccc1 (stereo not drawn) ?
[out] < 4.00

[in] Need pEC50, item O=C1c2ccccc2C(=O)N1CC(O)C(F)(F)C(=O)C12CC3CC(CC(C3)C1)C2 (stereo not drawn)
[out] < 4.00

---
[in] # input compound: CC(C)CC(=O)C(F)(F)C(NC(=O)OC(C)(C)C)c1ccccc1 (stereo not drawn) ; wanted: its pEC50
[out] < 4.00

[in] Name the recorded pEC50 for O=C(c1ccc2ccccc2c1)C(F)(F)C(NS(=O)(=O)c1ccccc1)c1ccccc1 (stereo not drawn) .
[out] 4.49

[in] What measured pEC50 goes with C/C=C/C=C/C(NCc1ccccc1)C(F)(F)C(=O)c1ccc2ccccc2c1 (stereo not drawn) ?
[out] < 4.00
